- assay remarks: In vitro antimalarial activity against the Plasmodium falciparum FCR3
- Format: functional
pEC50: −log10 of the molar value.
Binary classification by pEC50, with 6 as an inclusive lower bound for y; all other cases are n.

> print(dat)
                                    compound  cat
 1  O=c1c2ccccc2ccn1CC1(O)CC2NCCC[C@@H]2O1 (stereo partly specified)    n
 2  COCO[C@H]1CCCN2CO[C@H](Cn3cnc4ccccc4c3=O)C[C@H]12    y
 3  CC(=O)O[C@H]1CCCN2[C@H]1C[C@@H](O)[C@@H](n1cnc3ccccc3c1=O)C2(C)C    y
 4  O=c1ccncn1CC1(O)CC2NCCC[C@@H]2O1 (stereo partly specified)    y
 5  CC1(C)[C@@H](n2cnc3ccccc3c2=O)[C@@H](O)C[C@@H]2[C@@H](O)CCCN21    y
 6  CC1(C)[C@H](n2cnc3ccccc3c2=O)[C@@H](O)C[C@H]2[C@@H](O)CCCN21    n
 7  C[C@@H]1CC[C@H]2[C@@H](C)C(=O)O[C@@H]3O[C@@]4(C)CC[C@@H]1[C@]32OO4    y
 8  CC(=O)O[C@H]1CCCN2[C@@H]1CC(=O)[C@H](n1cnc3ccccc3c1=O)C2(C)C    y
 9  CC1(C)[C@@H](n2cnc3ccccc3c2=O)C(=O)C[C@@H]2[C@@H](O)CCCN21    y
10  O=c1c2ccccc2ncn1CC1(O)C[C@@H]2NCCC[C@@H]2O1 (stereo partly specified)    y

====

- Tested on: FM3A
- assay remarks: Selectivity ratio of cytotoxicity against FM3A cells to antimalarial activity against Plasmodium falciparum FCR3
- Format: functional, Mus musculus
Please use T whenever Selectivity is not below 300, and F whenever it is.

> print(dat)
                                   compound  experimental.system  cat
1  O=c1ccncn1CC1(O)CC2NCCC[C@@H]2O1 (some centres not stated)                 FM3A    F
2  CC1(C)[C@H](n2cnc3ccccc3c2=O)C(=O)C[C@H]2[C@@H](O)CCCN21                 FM3A    T
3  O=C(C[C@@H]1NCCC[C@H]1O)Cn1cnc2ccccc2c1=O [FEBRIFUGINE]                 FM3A    F
4  CC1(C)[C@@H](n2cnc3ccccc3c2=O)[C@H](O)C[C@@H]2[C@@H](O)CCCN21                 FM3A    F
5  O=c1c2ccccc2ncn1CC1(O)C[C@@H]2NCCC[C@@H]2O1 (some centres not stated) [ISOFEBRIFUGINE]                 FM3A    F
6  CC(=O)O[C@H]1CCCN2[C@H]1CC(=O)[C@@H](n1cnc3ccccc3c1=O)C2(C)C                 FM3A    T
7  CC1(C)[C@@H](n2cnc3ccccc3c2=O)C(=O)C[C@@H]2C(=O)CCCN21                 FM3A    T
8  O=C(CC1NCCCC1=O)Cn1cnc2ccccc2c1=O (configuration not stated)                 FM3A    T
9  CC1(C)[C@@H](n2cnc3ccccc3c2=O)[C@@H](O)C[C@@H]2[C@@H](O)CCCN21                 FM3A    F

====

- assay remarks: In vitro antimalarial activity against the Plasmodium falciparum FCR3
- Assay type: functional
readout label: EC50

> print(dat)
                                    molecule  reported.result
 1  CNc1ccccc1C(=O)NC1[C@@H](O)C[C@@H]2[C@@H](O)CCCN2C1(C)C (some centres undefined)           600 nM
 2  CC1(C)[C@@H](n2cnc3ccccc3c2=O)C(=O)C[C@@H]2[C@@H](O)CCC[N+]21[O-] (some centres undefined)           100 nM
 3  O=c1c2ccccc2ncn1C[C@@H](O)CC1NCCC[C@@H]1O (some centres undefined)            20 nM
 4  O=C(CC1NCCCC1=O)Cn1cnc2ccccc2c1=O (centres undefined)            20 nM
 5  CC1(C)[C@@H](n2cnc3ccccc3c2=O)C=C[C@@H]2[C@@H](O)CCCN21          4800 nM
 6  O=C(CC1NCCC[C@@H]1O)Cn1ccc2ccccc2c1=O (some centres undefined)           500 nM
 7  CCN(CC)CCCC(C)Nc1ccnc2cc(Cl)ccc12 (centres undefined) [CHLOROQUINE]            18 nM
 8  CC1(C)[C@@H](n2cnc3ccccc3c2=O)[C@H](O)C[C@@H]2[C@@H](O)CCCN21           300 nM
 9  O=C(C[C@@H]1NCCC[C@H]1O)Cn1cnc2ccccc2c1=O [FEBRIFUGINE]           700 nM
10  CC1(C)[C@@H](N2CNc3ccccc3C2=O)[C@@H](O)C[C@@H]2[C@@H](O)CCCN21           420 nM
11  O=c1c2ccccc2ncn1C[C@@H]1C[C@@H]2[C@H](O)CCCN2CO1           840 nM
12  CC1(C)[C@H](n2cnc3ccccc3c2=O)C(=O)C[C@H]2[C@@H](O)CCCN21           2.8 nM
13  CC(=O)O[C@H]1CCCN2[C@H]1CC(=O)[C@@H](n1cnc3ccccc3c1=O)C2(C)C            19 nM
14  CC1(C)[C@H](n2cnc3ccccc3c2=O)[C@H](O)C[C@H]2[C@@H](O)CCCN21           800 nM
15  CC1(C)[C@@H](n2cnc3ccccc3c2=O)C(=O)C[C@@H]2C(=O)CCCN21           1.9 nM
16  CC(=O)O[C@H]1CCCN2[C@H]1C[C@@H](OC(C)=O)[C@@H](n1cnc3ccccc3c1=O)C2(C)C          7000 nM
17  CC1(C)[C@@H](n2cnc3ccccc3c2=O)CC[C@@H]2[C@@H](O)CCCN21           830 nM
18  CC(=O)O[C@H]1CCCN(C(C)=O)C1CC(=O)Cn1cnc2ccccc2c1=O (some centres undefined)           910 nM
19  CCOC(=O)N1CCC[C@H](O)C1CC(=O)Cn1cnc2ccccc2c1=O (some centres undefined)          4800 nM

====

Form field: Selectivity (one value per entry).
- Tested on: FM3A
- assay remarks: Selectivity ratio of cytotoxicity against FM3A cells to antimalarial activity against Plasmodium falciparum FCR3
- Format: functional, Mus musculus
readout label: Selectivity

> print(dat)
                                   molecule  readout.label  reported.result
1  CC1(C)[C@@H](n2cnc3ccccc3c2=O)CC[C@@H]2[C@@H](O)CCCN21    Selectivity              >27
2  O=c1c2ccccc2ncn1C[C@@H]1C[C@@H]2[C@H](O)CCCN2CO1    Selectivity              >30
3  CC(=O)O[C@H]1CCCN2[C@H]1C[C@@H](OC(C)=O)[C@@H](n1cnc3ccccc3c1=O)C2(C)C    Selectivity               >3
4  CC(=O)O[C@H]1CCCN(C(C)=O)C1CC(=O)Cn1cnc2ccccc2c1=O (some centres undefined)    Selectivity              >32

====

- Test system: FM3A
- assay remarks: Selectivity ratio of cytotoxicity against FM3A cells to antimalarial activity against Plasmodium falciparum FCR3
- Format: functional, Mus musculus
readout label: Selectivity

> print(dat)
                                    compound  experimental.system  reported.result
 1  CC1(C)[C@@H](N2CNc3ccccc3C2=O)[C@@H](O)C[C@@H]2[C@@H](O)CCCN21                 FM3A              >38
 2  O=C(CC1NCCC[C@@H]1O)Cn1ccc2ccccc2c1=O (stereo partly drawn)                 FM3A              >32
 3  COCO[C@H]1CCCN2CO[C@H](Cn3cnc4ccccc4c3=O)C[C@H]12                 FM3A              291
 4  CCOC(=O)N1CCC[C@H](O)C1CC(=O)Cn1cnc2ccccc2c1=O (stereo partly drawn)                 FM3A             >3.5
 5  CNc1ccccc1C(=O)NC1[C@@H](O)C[C@@H]2[C@@H](O)CCCN2C1(C)C (stereo partly drawn)                 FM3A              >28
 6  CC(=O)O[C@H]1CCCN2[C@H]1C[C@@H](O)[C@@H](n1cnc3ccccc3c1=O)C2(C)C                 FM3A              >28
 7  CC1(C)[C@@H](n2cnc3ccccc3c2=O)C(=O)C[C@@H]2[C@@H](O)CCC[N+]21[O-] (stereo partly drawn)                 FM3A             >290
 8  O=c1c2ccccc2ccn1CC1(O)CC2NCCC[C@@H]2O1 (stereo partly drawn)                 FM3A               >3
 9  CC1(C)[C@H](n2cnc3ccccc3c2=O)[C@@H](O)C[C@H]2[C@@H](O)CCCN21                 FM3A              >28
10  O=C(CC1NCCC[C@@H]1O)Cn1cnccc1=O (stereo partly drawn)                 FM3A              >32
11  COC1=C[C@@H]2[C@@H](O)CCCN2C(C)(C)[C@H]1n1cnc2ccccc2c1=O                 FM3A              >51
12  CC1(C)[C@H](n2cnc3ccccc3c2=O)[C@H](O)C[C@H]2[C@@H](O)CCCN21                 FM3A              >30
13  CC1(C)[C@@H](n2cnc3ccccc3c2=O)C=C[C@@H]2[C@@H](O)CCCN21                 FM3A               >7
